Tested on: RNAi-treated eri-1 (mg366) nematodes
Experiment: RNAi screening of olfactory receptor genes: chemotaxis assay of RNAi-treated nematodes to odorants
Format: in vivo, Caenorhabditis elegans
Settings: srh-68 RNAi-treated nematodes; repellent or high concentration of attractant
Protocol: The RNAi assay was carried out by performing an RNAi method involving the feeding (feeding RNAi method) of eri-1 (mg366) (19), using an Ahringer library (37). Nine adult eri-1 mutants were placed on an NGM plate containing isopropyl 1-D-1-thiogalactopyranoside (0.19 g/L), ampicillin (60 mg/L), and Escherichia coli (E. coli), and were then cultured for 4 days. […] The z score and a control value in each single test from 2SD were calculated in all days (Table 3) or every day. […]
observed-property: chemotaxis index
Lab note: record just the number, no unit beside it.

Some solved cases for reference:
CCCCCCCC(C)=O :: −0.65
O=Cc1ccccc1 :: −0.87
CCCCCCCCO :: −0.79
CC(=O)C(C)=O :: −0.49

// returns chemotaxis index for "CC(C)CCO" with RNAi-treated eri-1 (mg366) nematodes; value = −0.67

* * *

Test system: RNAi-treated eri-1 (mg366) nematodes
Assay: RNAi screening of olfactory receptor genes: chemotaxis assay of RNAi-treated nematodes to odorants
Format: in vivo, Caenorhabditis elegans
Conditions: srh-217 RNAi-treated nematodes; low concentration of attractant
observed-property: chemotaxis index
Lab note: record just the number, no unit beside it.

Some solved cases for reference:
O=Cc1ccccc1 [benzaldehyde] :: 0.76
CCC(=O)C(C)=O [pentanedione] :: 0.92
Cc1nc(C)c(C)s1 [trimethylthiazole] :: 0.60
c1cnccn1 [pyrazine] :: 0.94
CC(C)CCO [isoamyl alcohol] :: −0.12

The measured chemotaxis index associated with CCC(C)=O [butanone] reads 0.69

* * *

System: RNAi-treated eri-1 (mg366) nematodes
Assay: RNAi screening of olfactory receptor genes: chemotaxis assay of RNAi-treated nematodes to odorants
Format: in vivo, Caenorhabditis elegans
Settings: srh-15 RNAi-treated nematodes; repellent or high concentration of attractant
Recorded chemotaxis index, one value per entry.
Lab note: record just the number, no unit beside it.

The measured chemotaxis index associated with CC(C)CCO [High Iaa] reads −0.60

The measured chemotaxis index associated with CCCCCCCCO [octanol] reads −0.85

The measured chemotaxis index associated with CC(=O)C(C)=O [High Da] reads −0.54

The measured chemotaxis index associated with O=Cc1ccccc1 [High Bz] reads −0.41

The measured chemotaxis index associated with CCCCCCCC(C)=O [nonanone] reads −0.25

* * *

System: RNAi-treated eri-1 (mg366) nematodes
Assay: RNAi screening of olfactory receptor genes: chemotaxis assay of RNAi-treated nematodes to odorants
Format: in vivo, Caenorhabditis elegans
Conditions: srh-79 RNAi-treated nematodes; repellent or high concentration of attractant
Recorded chemotaxis index, one value per entry.
Lab note: record just the number, no unit beside it.

Some solved cases for reference:
CCCCCCCC(C)=O :: −0.61
CCCCCCCCO :: −0.17
CC(C)CCO :: −0.22
CC(=O)C(C)=O :: 0.35

Turning to the following compound.
The measured chemotaxis index associated with "O=Cc1ccccc1" reads −0.80

* * *

Tested on: RNAi-treated eri-1 (mg366) nematodes
Test: RNAi screening of olfactory receptor genes: chemotaxis assay of RNAi-treated nematodes to odorants
Format: in vivo, Caenorhabditis elegans
Conditions: srh-71 RNAi-treated nematodes; repellent or high concentration of attractant
observed-property: chemotaxis index
Lab note: record just the number, no unit beside it.

CCCCCCCC(C)=O [nonanone] :: −0.80
CCCCCCCCO [octanol] :: −0.60
CC(C)CCO [High Iaa] :: −0.76
O=Cc1ccccc1 [High Bz] :: −0.91

Turning to the following compound.
The measured chemotaxis index associated with CC(=O)C(C)=O [High Da] reads −0.38

* * *

Test system: RNAi-treated eri-1 (mg366) nematodes
Test: RNAi screening of olfactory receptor genes: chemotaxis assay of RNAi-treated nematodes to odorants
Format: in vivo, Caenorhabditis elegans
Conditions: srh-250 RNAi-treated nematodes; low concentration of attractant
Recorded chemotaxis index, one value per entry.

Some solved cases for reference:
Cc1nc(C)c(C)s1 :: 0.58
CCC(C)=O :: 0.79
CCC(=O)C(C)=O :: 0.58

The measured chemotaxis index associated with "c1cnccn1" reads 0.55

The measured chemotaxis index associated with "CC(C)CCO" reads 0.47

The measured chemotaxis index associated with "O=Cc1ccccc1" reads 0.40

* * *

Recorded chemotaxis index, one value per entry.
Tested on: RNAi-treated eri-1 (mg366) nematodes
Assay: RNAi screening of olfactory receptor genes: chemotaxis assay of RNAi-treated nematodes to odorants
Type: in vivo, Caenorhabditis elegans
Settings: srh-61 RNAi-treated nematodes; repellent or high concentration of attractant
Lab note: record just the number, no unit beside it.

Some solved cases for reference:
CC(=O)C(C)=O [High Da] :: −0.57
CC(C)CCO [High Iaa] :: −0.82
CCCCCCCC(C)=O [nonanone] :: −0.68

The measured chemotaxis index associated with CCCCCCCCO [octanol] reads −0.77

The measured chemotaxis index associated with O=Cc1ccccc1 [High Bz] reads −0.92

* * *

Recorded chemotaxis index, one value per entry.
Tested on: RNAi-treated eri-1 (mg366) nematodes
Assay: RNAi screening of olfactory receptor genes: chemotaxis assay of RNAi-treated nematodes to odorants
Type: in vivo, Caenorhabditis elegans
Conditions: srh-100 RNAi-treated nematodes; repellent or high concentration of attractant

CCCCCCCCO :: −0.46
CCCCCCCC(C)=O :: −0.48
O=Cc1ccccc1 :: −0.94

The measured chemotaxis index associated with "CC(C)CCO" reads −0.64

The measured chemotaxis index associated with "CC(=O)C(C)=O" reads −0.75

* * *

Tested on: RNAi-treated eri-1 (mg366) nematodes
Test: RNAi screening of olfactory receptor genes: chemotaxis assay of RNAi-treated nematodes to odorants
Type: in vivo, Caenorhabditis elegans
Details: srh-291 RNAi-treated nematodes; low concentration of attractant
API: label(entry) gives true if the entry's chemotaxis index is strictly smaller than 0.8; on equality or larger values it gives false.

Consider the compound O=Cc1ccccc1 [benzaldehyde] . Is its chemotaxis index strictly less than 0.8?
true

Consider the compound CCC(=O)C(C)=O [pentanedione] . Is its chemotaxis index strictly less than 0.8?
true

Consider the compound CCC(C)=O [butanone] . Is its chemotaxis index strictly less than 0.8?
false

Consider the compound Cc1nc(C)c(C)s1 [trimethylthiazole] . Is its chemotaxis index strictly less than 0.8?
false

* * *

System: RNAi-treated eri-1 (mg366) nematodes
Assay: RNAi screening of olfactory receptor genes: chemotaxis assay of RNAi-treated nematodes to odorants
Type: in vivo, Caenorhabditis elegans
Conditions: srh-24 RNAi-treated nematodes; low concentration of attractant
observed-property: chemotaxis index
Lab note: record just the number, no unit beside it.

O=Cc1ccccc1 :: 0.69
CCC(=O)C(C)=O :: 0.59
CCC(C)=O :: 0.59
c1cnccn1 :: 0.57
Cc1nc(C)c(C)s1 :: 0.92

Turning to the following compound.
The measured chemotaxis index associated with "CC(C)CCO" reads 0.58

* * *

Test system: RNAi-treated eri-1 (mg366) nematodes
Assay: RNAi screening of olfactory receptor genes: chemotaxis assay of RNAi-treated nematodes to odorants
Assay type: in vivo, Caenorhabditis elegans
Conditions: srh-72 RNAi-treated nematodes; repellent or high concentration of attractant
observed-property: chemotaxis index
Lab note: record just the number, no unit beside it.

CCCCCCCCO :: −0.62

The measured chemotaxis index associated with "CC(=O)C(C)=O" reads −0.73

The measured chemotaxis index associated with "O=Cc1ccccc1" reads −0.98

The measured chemotaxis index associated with "CCCCCCCC(C)=O" reads −0.87

The measured chemotaxis index associated with "CC(C)CCO" reads −0.55

* * *

Test system: RNAi-treated eri-1 (mg366) nematodes
Experiment: RNAi screening of olfactory receptor genes: chemotaxis assay of RNAi-treated nematodes to odorants
Type: in vivo, Caenorhabditis elegans
Conditions: srh-99 RNAi-treated nematodes; low concentration of attractant
Recorded chemotaxis index, one value per entry.
Lab note: record just the number, no unit beside it.

c1cnccn1 [pyrazine] :: 0.29
CCC(C)=O [butanone] :: 0.75
CCC(=O)C(C)=O [pentanedione] :: 0.54

Turning to the following compound.
The measured chemotaxis index associated with Cc1nc(C)c(C)s1 [trimethylthiazole] reads 0.65

* * *

Recorded chemotaxis index, one value per entry.
System: RNAi-treated eri-1 (mg366) nematodes
Experiment: RNAi screening of olfactory receptor genes: chemotaxis assay of RNAi-treated nematodes to odorants
Format: in vivo, Caenorhabditis elegans
Conditions: srh-214 RNAi-treated nematodes; low concentration of attractant
Lab note: record just the number, no unit beside it.

Some solved cases for reference:
CCC(=O)C(C)=O [pentanedione] :: 0.88
Cc1nc(C)c(C)s1 [trimethylthiazole] :: 0.78
O=Cc1ccccc1 [benzaldehyde] :: 0.57
c1cnccn1 [pyrazine] :: 0.72
CC(C)CCO [isoamyl alcohol] :: 0.63

Turning to the following compound.
The measured chemotaxis index associated with CCC(C)=O [butanone] reads 0.85

Source: patent US12493040B2
